- Measured target: GABA-A receptor; alpha-2/beta-3/gamma-2 (Homo sapiens, UniProt P18507+P28472+P47869)
- Sequence (P18507 whole entry): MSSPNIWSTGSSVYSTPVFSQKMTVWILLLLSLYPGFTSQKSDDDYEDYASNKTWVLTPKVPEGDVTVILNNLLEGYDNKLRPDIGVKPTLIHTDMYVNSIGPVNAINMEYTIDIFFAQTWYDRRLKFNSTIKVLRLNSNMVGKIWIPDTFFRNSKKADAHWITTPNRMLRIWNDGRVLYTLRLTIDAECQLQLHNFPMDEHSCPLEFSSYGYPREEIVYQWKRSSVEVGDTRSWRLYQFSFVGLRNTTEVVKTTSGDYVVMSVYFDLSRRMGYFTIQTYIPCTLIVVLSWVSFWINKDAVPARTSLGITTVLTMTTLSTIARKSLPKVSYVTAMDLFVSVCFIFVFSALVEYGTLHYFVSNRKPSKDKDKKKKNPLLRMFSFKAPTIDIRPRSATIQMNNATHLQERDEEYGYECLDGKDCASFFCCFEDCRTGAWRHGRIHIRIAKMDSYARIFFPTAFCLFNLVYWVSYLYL
- Sequence (P28472 whole entry): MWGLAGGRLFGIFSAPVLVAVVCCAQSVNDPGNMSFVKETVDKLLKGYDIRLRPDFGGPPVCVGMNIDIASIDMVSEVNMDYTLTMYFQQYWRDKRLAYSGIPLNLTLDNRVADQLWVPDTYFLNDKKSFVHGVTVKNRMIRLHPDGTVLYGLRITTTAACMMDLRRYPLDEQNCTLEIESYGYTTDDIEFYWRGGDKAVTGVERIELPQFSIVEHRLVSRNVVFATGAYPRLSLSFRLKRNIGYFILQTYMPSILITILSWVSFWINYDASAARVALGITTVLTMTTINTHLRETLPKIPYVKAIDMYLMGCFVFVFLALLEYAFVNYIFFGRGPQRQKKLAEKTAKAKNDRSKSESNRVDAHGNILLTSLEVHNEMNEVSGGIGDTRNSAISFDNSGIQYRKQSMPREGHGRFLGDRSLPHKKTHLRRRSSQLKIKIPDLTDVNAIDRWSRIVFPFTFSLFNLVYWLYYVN
- Sequence (P47869 whole entry): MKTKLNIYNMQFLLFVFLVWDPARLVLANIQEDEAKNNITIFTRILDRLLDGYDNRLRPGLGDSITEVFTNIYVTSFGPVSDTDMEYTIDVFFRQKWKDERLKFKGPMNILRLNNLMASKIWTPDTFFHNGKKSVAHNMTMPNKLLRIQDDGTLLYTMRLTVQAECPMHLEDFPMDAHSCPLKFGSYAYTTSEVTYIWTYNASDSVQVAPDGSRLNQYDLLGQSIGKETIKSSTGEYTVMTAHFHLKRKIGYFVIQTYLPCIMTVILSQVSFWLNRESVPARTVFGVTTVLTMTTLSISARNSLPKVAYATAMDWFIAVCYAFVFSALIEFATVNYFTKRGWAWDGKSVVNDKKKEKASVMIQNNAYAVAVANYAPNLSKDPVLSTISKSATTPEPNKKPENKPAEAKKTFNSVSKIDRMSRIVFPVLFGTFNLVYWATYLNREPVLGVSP
- Test protocol: Activity at alpha-2-beta-3-gamma-2 GABAA receptor expressed in Xenopus oocytes assessed as inhibition in GABA-induced current by voltage clamp assay
Outcome measure: EC50 (µM)
Give the number; µM is assumed, so skip it.

Req: Query: EC50; subject: "C#Cc1ccc2c(c1)C(=O)N(C)Cc1c(C(=O)OC(C)(C)C)ncn1-2"
Resp: 95.5

---

Some molecules, each annotated with its measured Kd.
- Measured target: Gamma-aminobutyric acid receptor subunit alpha-1 (Homo sapiens, UniProt P14867+P18507+P47870)
- Sequence (P14867 whole entry): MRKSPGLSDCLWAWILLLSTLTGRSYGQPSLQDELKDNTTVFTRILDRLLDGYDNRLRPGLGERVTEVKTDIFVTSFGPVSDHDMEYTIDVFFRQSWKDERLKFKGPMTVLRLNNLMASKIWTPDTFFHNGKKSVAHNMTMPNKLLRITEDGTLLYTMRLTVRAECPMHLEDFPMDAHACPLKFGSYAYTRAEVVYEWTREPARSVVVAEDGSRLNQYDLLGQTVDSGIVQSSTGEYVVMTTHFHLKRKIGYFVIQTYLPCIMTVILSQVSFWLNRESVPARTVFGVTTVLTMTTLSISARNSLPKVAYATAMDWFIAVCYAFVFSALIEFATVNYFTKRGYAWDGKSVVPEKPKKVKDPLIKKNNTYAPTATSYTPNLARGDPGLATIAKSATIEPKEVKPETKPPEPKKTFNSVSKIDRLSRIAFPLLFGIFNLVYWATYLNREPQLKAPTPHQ
- Test protocol: Binding affinity to GABAA alpha-1-beta-2-gamma-2 receptor
Give the number; nM is assumed, so skip it.

Example molecules with recorded Kd:
{"Molecule": "COC(=O)c1cc2c(cn1)[nH]c1ccccc12", "Kd, nM": 1}
{"Molecule": "CCOC(=O)c1cc2c(cn1)[nH]c1ccccc12", "Kd, nM": 1}
{"Molecule": "CC(C)(C)OC(=O)c1cc2c3ccccc3nc-2c[nH]1", "Kd, nM": 1}
{"Molecule": "CCOc1cc2c(cn1)[nH]c1ccccc12", "Kd, nM": 1.2}
{"Molecule": "CCOC(=O)c1ncn2c3ccc(C#C[Si](C)(C)C)cc3c(=O)n(C)c12", "Kd, nM": 121}
{"Molecule": "CCCOc1cc2c(cn1)[nH]c1ccccc12", "Kd, nM": 5}
{"Molecule": "COc1ccc(-n2nc3c4ccccc4[nH]cc-3c2=O)cc1", "Kd, nM": 0.1}
{"Molecule": "Cn1c(=O)c2cc(C#C[Si](C)(C)C)ccc2n2cnc(C(=O)OC(C)(C)C)c12", "Kd, nM": 197}
{"Molecule": "O=C1C2C=Nc3ccccc3C2=NN1c1ccc(Cl)cc1 (stereo not given)", "Kd, nM": 0.3}

Req: Query: Kd; subject: O=C1C2C=Nc3ccccc3C2=NN1c1ccccc1 (stereo not given)
Resp: 8.3
